ASSAY PROCEDURE: yeast display, Sf9 membrane polyspecificity reagent, FACS + sequencing; frameworks hold sequencing errors
MEASUREMENT TYPE: polyreactivity (PSR sort gate)

QVQIVESGGGLVQAGGSLRLSCAASGITFVGNAMVWYRQAPGKERELVAVISRGDSTNYADSVKGLFTISRDNAKNTVYLQMNSLKPEDTAVYYCAADGSRAGQEGNDYWGQGTQVSVSS = low polyreactivity
QVQLVESGGGLVQAGGSLRLSCAASGSIIPPNAMGWYRQAPGKERELVAGISSGGSTTYADSVKGRFTISRDNAKNTVYLQMNSLKPEDTAVYYCAADVPYGASIISYDYWGQGTQVTVSS = low polyreactivity

###

ASSAY PROCEDURE: yeast display, Sf9 membrane polyspecificity reagent, FACS + sequencing; frameworks hold sequencing errors
MEASUREMENT TYPE: polyreactivity (PSR sort gate)

Use the examples below as a reference point.
QVQLVESGGGLVQAGGTLRLSCAASGRIFQAYAMGWYRQAPGKERELVASISYRGGITYYADSVKGRFTISRDNAKNTVYLQMNSLKPEDTAVYYCAARSWYFSWEMYYWGQGTQVTVSS = high polyreactivity
QVQLEESGGGLVQAGGSLRLSCAASGSTFVGNAMGWYRQAPGKERELVAAISFSGGSTYYADSVKGRFTISRDNAKNTVYLQMNSLKPEDTAVYYCAKKTRYRSRGMNYWGQGTQVTVSS = high polyreactivity
QVQLVESGGGLVQSGGSLRLSCAASGRIFDENAMGWYRQAPGKERELVAAITGGDSTNYADSVKGRFTISRDNAKNTVYLQMNSLKPEDTAVYYCAVDVIYYWAEDYDYWGQGTQVTVSS = low polyreactivity
QVQLVESGGGLVQAGGSLRLSCAASGFTFYYNAMGWYRQAPGKERELVAIRFRGGNTYYADSVKGRFTISRDNAKNTVYLQMNSLKPEDTAVYYCNADDRGSTYVDFDYWGQGTQVTVSS = low polyreactivity
QVQLVESGGGLVHPGGSLRLSCAASGRTYAVDAMGWYRQAPGKERELVAAISRRGGSTSYADSEKGRFTISRDNAKNTVSLQMNSLKPEDTAVYYCNTDPGKFTPFDYWGQGTQVTVSS = high polyreactivity
QGQLVESGGGLVQAGGSLRLSGAASGRTFRCNAMGWYRQAPGKERELVAAITSSGGRTYYADSVNGRFTISRDNAKNTVYLQMNSLKPEDTAVYYCAADAYQRGSGRYYEYDYWGQGTQVTVSS = high polyreactivity
QVQLEESGGGLVQAGGSLRLSCSASGRIFSRNAMGWYRQAPGKERELVAAIRPRGGTTYYADSVKGRFTISRDNAKNTVYLQINSLKPYDTAVYYCATGGGRNSTDRRRLHYTYYYWGQGTQVTVSS = low polyreactivity
QVQLVESGAGLVQAGGSLRLSCAASGFTFDNYVMGWYRQAPGKERELVAAISKSGTSTYYADSVKGRFTISRDNAKNTVYLQMNSLKPEDTAVYYCAAALPGYGDYYYWGQGTLVTVSS = high polyreactivity

Form field: reported polyreactivity (PSR sort gate) of QVQLVESGGGLVQAGGRLRLSCAASGRTIDHYAMGWYRQAPGKERELVAAISTTGGSTYYADSVKGRFTISRDNAKNTVYLQMNSLKPEDTAVYYCAARGLRTGGYWGQGTQVTVSS
high polyreactivity

Form field: reported polyreactivity (PSR sort gate) of QVHLVESGGGLFQAGGSLRLRCAASGRIFRYNTMGWYRQAPGKERELVAAINSSGGRTYYADSVKGRFTISRDNAKNTVYLQMNSLKPDDTAVYYCAAVIYVLSGPGYDYWGQGTQVTVSE
high polyreactivity

Form field: reported polyreactivity (PSR sort gate) of QVQLVESGGGLVQAGGSLRLSCAASGSIFRDYAMGWYRPAPGKERELVAAISSGVSTNYADSVKGRFSISRDNAKNSVYLKMNSLIPEDTAVYYCNTDKYSESFRSYEYWGQGTQVTVSS
low polyreactivity
